- TESTED ON: serotonin 5-HT1A receptors (Rattus norvegicus, UniProt P19327)
- Construct: from tissue; host or cells: rat brain tissues
- Sequence (P19327 whole entry): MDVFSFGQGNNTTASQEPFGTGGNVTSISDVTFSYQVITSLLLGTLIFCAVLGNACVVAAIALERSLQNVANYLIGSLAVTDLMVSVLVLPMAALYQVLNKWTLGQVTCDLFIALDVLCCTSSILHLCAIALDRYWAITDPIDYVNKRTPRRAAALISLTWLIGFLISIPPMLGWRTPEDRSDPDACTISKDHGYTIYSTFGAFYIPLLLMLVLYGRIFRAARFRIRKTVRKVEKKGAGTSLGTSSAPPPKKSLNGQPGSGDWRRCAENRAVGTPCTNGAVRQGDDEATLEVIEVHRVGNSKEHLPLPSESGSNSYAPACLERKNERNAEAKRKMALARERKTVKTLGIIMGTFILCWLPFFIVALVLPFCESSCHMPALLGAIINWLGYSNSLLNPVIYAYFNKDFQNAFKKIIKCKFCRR
- ASSAY PROCEDURE: Radioligand binding assay, 5-HT1A receptors
- STATED CONDITIONS: rat brain tissues; read-out: 5-HT1A IC50 [nM] ± SEM
ATTRIBUTE MEASURED: IC50 (nM)

1) COc1cc(C(=O)NC2CC3CCC(C2)N3Cc2ccccn2)nc2ccccc12 (centres unmarked) [Compound 12o]; 453
2) Nc1cccc(CN2C3CCC2CC(NC(=O)c2ccc4ccccc4c2)C3)c1 (centres unmarked) [Compound 19b]; 862
3) Cc1ccc(CN2C3CCC2CC(NC(=O)c2cnc4ccccc4c2)C3)cc1 (centres unmarked) [Compound 12j]; 493
4) Cc1ccccc1CN1C2CCC1CC(NC(=O)c1ccc3ncccc3c1)C2 (centres unmarked) [Compound 12c]; 1350
5) Nc1ccc(CN2C3CCC2CC(NC(=O)c2ccc4ccccc4c2)C3)cc1 (centres unmarked) [Compound 19c]; 4040
6) Cc1ccc(CN2C3CCC2CC(NC(=O)c2ccc4ccccc4n2)C3)cc1 (centres unmarked) [Compound 12i]; 131
7) Cc1ccc(CN2C3CCC2CC(NC(=O)c2ccc4ncccc4c2)C3)cc1 (centres unmarked) [Compound 12k]; 1530
8) O=C(NC1CC2CCC(C1)N2Cc1ccncc1)c1ccc2ccccc2n1 (centres unmarked) [Compound 12t]; 2430
9) COc1cc(C(=O)NC2CC3CCC(C2)N3Cc2ccccc2C)nc2ccccc12 (centres unmarked) [Compound 12d]; 102
10) Nc1ccccc1CN1C2CCC1CC(NC(=O)c1ccc3ccccc3c1)C2 (centres unmarked) [Compound 19a]; 159
11) Cc1cccc(CN2C3CCC2CC(NC(=O)c2cnc4ccccc4c2)C3)c1 (centres unmarked) [Compound 12f]; 255

---

- TESTED ON: serotonin 5-HT2A receptors (Rattus norvegicus, UniProt P14842)
- Construct: from tissue; host or cells: rat brain tissues
- Sequence (P14842 whole entry): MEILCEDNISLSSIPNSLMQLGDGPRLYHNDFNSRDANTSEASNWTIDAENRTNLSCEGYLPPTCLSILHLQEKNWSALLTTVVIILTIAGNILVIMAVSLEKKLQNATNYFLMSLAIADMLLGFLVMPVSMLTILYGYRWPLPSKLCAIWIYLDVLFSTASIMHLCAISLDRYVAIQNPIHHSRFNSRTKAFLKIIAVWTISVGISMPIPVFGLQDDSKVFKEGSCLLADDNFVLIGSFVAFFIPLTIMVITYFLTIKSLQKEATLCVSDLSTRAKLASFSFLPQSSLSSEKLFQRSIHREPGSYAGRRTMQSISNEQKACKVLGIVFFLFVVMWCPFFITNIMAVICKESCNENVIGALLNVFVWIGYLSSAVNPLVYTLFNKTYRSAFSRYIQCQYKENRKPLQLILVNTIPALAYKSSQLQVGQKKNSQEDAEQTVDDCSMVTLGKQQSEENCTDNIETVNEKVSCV
- ASSAY PROCEDURE: Radioligand binding assay, 5-HT2A receptors
- STATED CONDITIONS: rat brain tissues; read-out: 5-HT2A Ki [nM] ± SEM
ATTRIBUTE MEASURED: Ki

1. COc1cc(C(=O)NC2CC3CCC(C2)N3Cc2cccc(C)c2)nc2ccccc12 (centres unmarked) [Compound 12h]; > 10000 nM
2. COc1cc(C(=O)NC2CC3CCC(C2)N3Cc2cccnc2)nc2ccccc12 (centres unmarked) [Compound 12s]; > 10000 nM
3. Cc1ccc(CN2C3CCC2CC(NC(=O)c2cnc4ccccc4c2)C3)cc1 (centres unmarked) [Compound 12j]; > 10000 nM
4. O=C(NC1CC2CCC(C1)N2Cc1ccncc1)c1ccc2ccccc2n1 (centres unmarked) [Compound 12t]; > 10000 nM
5. Cc1cccc(CN2C3CCC2CC(NC(=O)c2ccc4ccccc4n2)C3)c1 (centres unmarked) [Compound 12e]; > 10000 nM
6. COc1cc(C(=O)NC2CC3CCC(C2)N3Cc2ccccc2C)nc2ccccc12 (centres unmarked) [Compound 12d]; > 10000 nM
7. COc1cc(C(=O)NC2CC3CCC(C2)N3Cc2ccccn2)nc2ccccc12 (centres unmarked) [Compound 12o]; > 10000 nM
8. Cc1ccccc1CN1C2CCC1CC(NC(=O)c1cnc3ccccc3c1)C2 (centres unmarked) [Compound 12b]; 1030 nM
9. Cc1cccc(CN2C3CCC2CC(NC(=O)c2ccc4ncccc4c2)C3)c1 (centres unmarked) [Compound 12g]; > 10000 nM
10. Cc1ccc(CN2C3CCC2CC(NC(=O)c2ccc4ccccc4n2)C3)cc1 (centres unmarked) [Compound 12i]; > 10000 nM
11. Cc1cccc(CN2C3CCC2CC(NC(=O)c2cnc4ccccc4c2)C3)c1 (centres unmarked) [Compound 12f]; 1440 nM
12. O=C(NC1CC2CCC(C1)N2Cc1cccnc1)c1ccc2ccccc2n1 (centres unmarked) [Compound 12p]; > 10000 nM
13. Cc1ccccc1CN1C2CCC1CC(NC(=O)c1ccc3ccccc3n1)C2 (centres unmarked) [Compound 12a]; > 10000 nM
14. Nc1ccc(CN2C3CCC2CC(NC(=O)c2ccc4ccccc4c2)C3)cc1 (centres unmarked) [Compound 19c]; 1240 nM
15. O=C(NC1CC2CCC(C1)N2Cc1ccccn1)c1cnc2ccccc2c1 (centres unmarked) [Compound 12m]; > 10000 nM
16. COc1cc(C(=O)NC2CC3CCC(C2)N3Cc2ccncc2)nc2ccccc12 (centres unmarked) [Compound 12w]; > 10000 nM
17. Cc1ccc(CN2C3CCC2CC(NC(=O)c2ccc4ncccc4c2)C3)cc1 (centres unmarked) [Compound 12k]; > 10000 nM
18. O=C(NC1CC2CCC(C1)N2Cc1ccccn1)c1ccc2ccccc2n1 (centres unmarked) [Compound 12l]; > 10000 nM
19. Cc1ccccc1CN1C2CCC1CC(NC(=O)c1ccc3ncccc3c1)C2 (centres unmarked) [Compound 12c]; > 10000 nM
20. Nc1cccc(CN2C3CCC2CC(NC(=O)c2ccc4ccccc4c2)C3)c1 (centres unmarked) [Compound 19b]; 208 nM
